# systemTested: Delta-type opioid receptor (Mus musculus) (UniProt P32300)
# Sequence (P32300 whole entry): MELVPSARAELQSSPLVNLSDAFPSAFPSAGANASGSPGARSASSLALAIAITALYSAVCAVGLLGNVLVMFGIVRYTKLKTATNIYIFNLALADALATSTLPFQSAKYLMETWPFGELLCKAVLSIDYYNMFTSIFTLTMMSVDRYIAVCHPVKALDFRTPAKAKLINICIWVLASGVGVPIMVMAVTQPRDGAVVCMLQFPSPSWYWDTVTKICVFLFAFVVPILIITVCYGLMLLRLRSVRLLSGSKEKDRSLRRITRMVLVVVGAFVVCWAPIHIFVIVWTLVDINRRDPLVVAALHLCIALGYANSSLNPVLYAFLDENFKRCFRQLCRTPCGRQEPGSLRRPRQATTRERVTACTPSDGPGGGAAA
# testProtocol: Antagonistic activity (Ke) at Opioid receptor delta 1 was determined against DADLE in the mouse vas deferens (MVD) method.
# Assay type: functional, tissue-based
measurementLabel: Ke

CCCCOc1cccc2c1[C@]13CCN(CC4CC4)[C@H](C2)[C@]1(OC)CCC(=O)C3; 2.05 µM
CO[C@@]12CCC(=O)[C@@H]3Oc4cccc5c4C31CCN(CC1CC1)[C@@H]2C5; 4.03 µM
COc1ccc2c(c1OC)[C@]13CCN(CC4CC4)[C@H](C2)[C@]1(OC)CCC(=O)C3; 0.744 µM
C=CCN1CC[C@]23CC(=O)CC[C@@]2(OC)[C@H]1Cc1cccc(OC)c13; 6.45 µM

###

# systemTested: UniProt P35372
# testProtocol: Agonist potency against mu opioid receptor expressed as the ratio of the ED40 concentrations of the ethylketocyclazocin and compound in guinea pig ileum
# Assay type: functional, tissue-based
measurementLabel: Ratio

CCO[C@@]12CCC(=O)C[C@@]13CCN(CC1CC1)[C@@H]2Cc1ccc(OC)c(OC)c13; 0.0015
CCO[C@@]12CCC(=O)C[C@@]13CCN(CC1CC1)[C@@H]2Cc1cccc(OC)c13; 0.0014
C=CCN1CC[C@]23CC(=O)CC[C@@]2(OCC)[C@H]1Cc1cccc(OC)c13; 0.0004
C=CCN1CC[C@]23CC(=O)CC[C@@]2(OCC)[C@H]1Cc1ccc(OC)c(OC)c13; 0.001

###

# systemTested: Opioid receptors; mu & delta (Homo sapiens) (UniProt P41143+P35372)
# Sequence (P35372 whole entry, looked up): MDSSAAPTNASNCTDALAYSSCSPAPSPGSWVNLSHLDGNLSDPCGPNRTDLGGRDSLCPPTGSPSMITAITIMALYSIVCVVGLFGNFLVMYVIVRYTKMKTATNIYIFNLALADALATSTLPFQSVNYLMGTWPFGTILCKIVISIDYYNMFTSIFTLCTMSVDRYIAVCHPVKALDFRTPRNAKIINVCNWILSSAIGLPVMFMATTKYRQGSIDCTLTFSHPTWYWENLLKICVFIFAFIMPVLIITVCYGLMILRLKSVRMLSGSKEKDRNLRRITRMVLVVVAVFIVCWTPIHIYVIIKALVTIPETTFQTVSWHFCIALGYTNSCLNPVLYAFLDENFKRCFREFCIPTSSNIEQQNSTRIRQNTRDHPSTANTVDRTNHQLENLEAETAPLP
# Sequence (P41143 whole entry, looked up): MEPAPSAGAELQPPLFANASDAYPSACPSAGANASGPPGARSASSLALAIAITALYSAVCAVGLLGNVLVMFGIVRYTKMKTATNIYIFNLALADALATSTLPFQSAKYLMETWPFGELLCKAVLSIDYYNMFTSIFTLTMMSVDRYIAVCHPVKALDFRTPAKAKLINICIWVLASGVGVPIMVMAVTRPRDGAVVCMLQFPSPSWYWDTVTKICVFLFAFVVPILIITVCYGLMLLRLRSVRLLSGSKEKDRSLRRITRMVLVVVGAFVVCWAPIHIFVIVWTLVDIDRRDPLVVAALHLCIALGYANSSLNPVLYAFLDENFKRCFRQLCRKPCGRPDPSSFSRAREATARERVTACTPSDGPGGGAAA
# testProtocol: Selectivity ratio was determined using the Ke value of Opioid receptor delta 1 to that of Opioid receptor mu 1
Overview of recorded Selectivity ratio for various molecules
measurementLabel: Selectivity ratio

CO[C@@]12CCC(=O)C[C@@]13CCN(CC1CC1)[C@@H]2Cc1cccc(OC(C)C)c13; 105
CCO[C@@]12CCC(=O)C[C@@]13CCN(CC1CC1)[C@@H]2Cc1cccc(OC)c13; 98
C=CCN1CC[C@]23CC(=O)CC[C@@]2(OCC)[C@H]1Cc1cccc(OC)c13; 46
CCO[C@@]12CCC(=O)C[C@@]13CCN(CC1CC1)[C@@H]2Cc1ccc(OC)c(OC)c13; 33
COc1cccc2c1[C@]13CCN(CC4CC4)[C@H](C2)[C@]1(OC)CCC(=O)C3; 110
C=CCN1CC[C@]23CC(=O)CC[C@@]2(OCC)[C@H]1Cc1ccc(OC)c(OC)c13; 3.6

###

# systemTested: Mu-type opioid receptor (Mus musculus)
# testProtocol: Antagonistic activity (Ke) against nor-morphine and Opioid receptor mu 1 of mouse vas deferens assay
# Type: functional, tissue-based
Threshold rule: Ke greater than or equal to 100 nM is true; below that, false.

C=CCN1CC[C@]23CC(=O)CC[C@@]2(OCC)[C@H]1Cc1cccc(OC)c13; false
COc1ccc2c(c1OC)[C@]13CCN(CC4CC4)[C@H](C2)[C@]1(OC)CCC(=O)C3; true
CCO[C@@]12CCC(=O)C[C@@]13CCN(CC1CC1)[C@@H]2Cc1ccc(OC)c(OC)c13; false
CO[C@@]12CCC(=O)[C@@H]3Oc4cccc5c4C31CCN(CC1CC1)[C@@H]2C5; true
C=CCN1CC[C@]23CC(=O)CC[C@@]2(OCC)[C@H]1Cc1ccc(OC)c(OC)c13; true
CO[C@@]12CCC(=O)C[C@@]13CCN(CC1CC1)[C@@H]2Cc1cccc(OC(C)C)c13; true
CCO[C@@]12CCC(=O)C[C@@]13CCN(CC1CC1)[C@@H]2Cc1cccc(OC)c13; false
CCCCOc1cccc2c1[C@]13CCN(CC4CC4)[C@H](C2)[C@]1(OC)CCC(=O)C3; false
C=CCN1CC[C@]23CC(=O)CC[C@@]2(OC)[C@H]1Cc1ccc(OC)c(OC)c13; true
C=CCN1CC[C@]23CC(=O)CC[C@@]2(OC)[C@H]1Cc1cccc(OC)c13; true
